All values here come from the supplement of paper PMC10127200.

Answer each item with its documented Euclidean distance.
- Tested on: FB
- protocolText: Euclidean distance of Cell Painting phenotypic profile (signed KS, 77 features) to DMSO centroid (dimensionless distance); 5 or 10 uM (library dependent); higher = stronger phenotypic change vs DMSO (phenoactivity)
- conditionSet: 48 h
Structures can show the parent of a compound that is named as a salt.
Output: the number by itself.

Prompt line: Dear colleague, I am looking for the recorded Euclidean distance of the following compound: CC(NC(=O)c1ccccc1/N=C/c1c(O)ccc2ccccc12)c1ccccc1 (configuration not stated) [Sirtinol]
Response line: 0.99

Prompt line: Dear colleague, I am looking for the recorded Euclidean distance of the following compound: CC1(C)S[C@@H]2[C@H](NC(=O)Cc3ccccc3)C(=O)N2[C@H]1C(=O)O [Penicillin G Sodium]
Response line: 0.979

Prompt line: Dear colleague, I am looking for the recorded Euclidean distance of the following compound: Cc1nc2cccc(N)c2c(=O)n1C1CCC(=O)NC1=O (configuration not stated) [Avadomide(CC-122)]
Response line: 1.02

Prompt line: Dear colleague, I am looking for the recorded Euclidean distance of the following compound: CC(=O)OCC(=O)[C@@]1(O)CC[C@H]2[C@@H]3CCC4=CC(=O)CC[C@]4(C)[C@H]3[C@@H](O)C[C@@]21C [Hydrocortisone acetate]
Response line: 1.96

Prompt line: Dear colleague, I am looking for the recorded Euclidean distance of the following compound: O=NN(CCCl)C(=O)NCCCl [Carmustine]
Response line: 0.896

Prompt line: Dear colleague, I am looking for the recorded Euclidean distance of the following compound: O=c1oc2cc(O)ccc2s1 [Tioxolone]
Response line: 0.922

Prompt line: Dear colleague, I am looking for the recorded Euclidean distance of the following compound: COc1ccc2c(c1)C(=O)N(CCc1ccc(S(=O)(=O)NC(=O)NC3CCCCC3)cc1)C(=O)C2(C)C [Gliquidone]
Response line: 1.06

Prompt line: Dear colleague, I am looking for the recorded Euclidean distance of the following compound: `Cc1ccc(C(=O)Nc2ccc(Oc3cc4cnn(C)c4cc3-c3cn[nH]c3)c(F)c2)c(=O)n1-c1ccc(F)cc1`
Response line: 3.01

Prompt line: Dear colleague, I am looking for the recorded Euclidean distance of the following compound: `Cc1cc(C)c2c(c1)[C@@H](N(Cc1cc(C(F)(F)F)cc(C(F)(F)F)c1)c1nnn(C)n1)CCCN2C[C@H]1CC[C@H](C(=O)O)CC1`
Response line: 1.05

Prompt line: Dear colleague, I am looking for the recorded Euclidean distance of the following compound: CC(C)(C)c1[nH]cnc1/C=c1\[nH]c(=O)/c(=C/c2ccccc2)[nH]c1=O [Plinabulin (NPI-2358)]
Response line: 2.89

Prompt line: Dear colleague, I am looking for the recorded Euclidean distance of the following compound: CCCCN1CCCCC1C(=O)Nc1c(C)cccc1C (configuration not stated) [Bupivacaine HCl]
Response line: 0.904

Prompt line: Dear colleague, I am looking for the recorded Euclidean distance of the following compound: O=C1C[C@@H](c2ccc(O)cc2)Oc2cc(O)cc(O)c21 [Naringenin]
Response line: 1.06

Prompt line: Dear colleague, I am looking for the recorded Euclidean distance of the following compound: `Cc1ccc(CNc2ncnc3ccc(-c4ccc(CO)o4)cc23)o1`
Response line: 1.25

Prompt line: Dear colleague, I am looking for the recorded Euclidean distance of the following compound: `Cc1ccc(NC(=O)c2cccc(N(C)C)c2)cc1NC(=O)c1ccc(O)cc1`
Response line: 2.03

Prompt line: Dear colleague, I am looking for the recorded Euclidean distance of the following compound: COC(=O)c1ccc2c(C(=Nc3ccc(N(C)C(=O)CN4CCN(C)CC4)cc3)c3ccccc3)c(O)[nH]c2c1 [Nintedanib Ethanesulfonate Salt]
Response line: 4.88

Prompt line: Dear colleague, I am looking for the recorded Euclidean distance of the following compound: CNC(=O)[C@H](Cc1ccccc1)NC(=O)[C@H](CC(C)C)[C@H](CSc1cccs1)C(=O)NO [Batimastat (BB-94)]
Response line: 1.68

Prompt line: Dear colleague, I am looking for the recorded Euclidean distance of the following compound: C[C@H]1C[C@H]2[C@@H]3CCC4=CC(=O)C=C[C@]4(C)[C@@]3(F)[C@@H](O)C[C@]2(C)[C@@]1(O)C(=O)CO [Betamethasone]
Response line: 1.68

Prompt line: Dear colleague, I am looking for the recorded Euclidean distance of the following compound: `COc1ccc(-c2ccc3c(N4CCOC[C@@H]4C)nc(N4CCOC[C@@H]4C)nc3n2)cc1CO`
Response line: 5.02

Prompt line: Dear colleague, I am looking for the recorded Euclidean distance of the following compound: `N#Cc1cc(CN2CCC(Nc3ncnc4sc(Cl)cc34)CC2)ccc1F`
Response line: 1.19

Prompt line: Dear colleague, I am looking for the recorded Euclidean distance of the following compound: NS(=O)(=O)c1cc(Cl)c(Cl)c(S(N)(=O)=O)c1 [Dichlorphenamide]
Response line: 0.872

Prompt line: Dear colleague, I am looking for the recorded Euclidean distance of the following compound: O=C(Nc1ccc(OC(F)(F)Cl)cc1)c1cnc(N2CC[C@@H](O)C2)c(-c2cc[nH]n2)c1 [Asciminib (ABL001)]
Response line: 1.32

Prompt line: Dear colleague, I am looking for the recorded Euclidean distance of the following compound: CCN(CC)CC#CCOC(=O)C(O)(c1ccccc1)C1CCCCC1 (configuration not stated) [Oxybutynin]
Response line: 0.788

Prompt line: Dear colleague, I am looking for the recorded Euclidean distance of the following compound: c1ccc2c(c1)CCCC2C1=NCCN1 (configuration not stated) [Tetrahydrozoline HCl]
Response line: 0.944

Prompt line: Dear colleague, I am looking for the recorded Euclidean distance of the following compound: COCCCN1CCC(NC(=O)c2cc(Cl)c(N)c3c2OCC3)CC1 [Prucalopride Succinate]
Response line: 1.4

Prompt line: Dear colleague, I am looking for the recorded Euclidean distance of the following compound: `COc1cc2c(Oc3ccc(NC(=O)C4(C(=O)Nc5ccc(F)cc5)CC4)cc3F)ccnc2cc1OCCCN1CCOCC1`
Response line: 1.52

Prompt line: Dear colleague, I am looking for the recorded Euclidean distance of the following compound: CC(=O)[O-].[K+] [Potassium acetate]
Response line: 0.927

Prompt line: Dear colleague, I am looking for the recorded Euclidean distance of the following compound: OCCN1C[C@H](O)[C@@H](O)[C@H](O)[C@H]1CO [Miglitol]
Response line: 0.979
